- testedSystem: human 5-HT6 receptor (Homo sapiens, UniProt P50406)
- Construct: host or cells: CHO-K1 cells, stably transfected; membranes prepared in house
- Sequence (P50406 whole entry): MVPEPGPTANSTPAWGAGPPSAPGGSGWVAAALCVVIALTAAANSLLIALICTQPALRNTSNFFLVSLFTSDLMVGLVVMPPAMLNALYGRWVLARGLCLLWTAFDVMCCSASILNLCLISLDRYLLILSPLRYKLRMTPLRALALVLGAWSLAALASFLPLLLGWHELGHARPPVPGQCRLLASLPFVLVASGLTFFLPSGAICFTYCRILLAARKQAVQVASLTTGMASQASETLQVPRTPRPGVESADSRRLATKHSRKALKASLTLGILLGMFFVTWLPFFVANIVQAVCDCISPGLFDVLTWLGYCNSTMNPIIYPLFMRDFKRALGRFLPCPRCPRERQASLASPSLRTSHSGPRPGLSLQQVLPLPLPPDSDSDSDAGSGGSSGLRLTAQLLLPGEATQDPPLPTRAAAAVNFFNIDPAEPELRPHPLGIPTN
- protocolText: Human 5-HT6 Receptor Binding Assay ([3H]LSD displacement, scintillation beads)
- conditionParameters: membranes of CHO-K1 cells with recombinant human 5-HT6, 4 nM [3H]LSD; specific data; read-out: h5-HT6 (Ki)
measuredEndpoint: Ki (nM)

O=S(=O)(c1cccc(C(F)(F)F)c1)c1ccc2c(c1)OC1CNCCC21 (stereo not shown)    44
Cc1ccc(C)c(S(=O)(=O)Nc2ccc3c(c2)C2CCNCC2O3)c1 (stereo not shown)    472
O=S(=O)(c1cccc(F)c1)c1ccc2c3c([nH]c2c1)C(C(F)(F)F)NCC3 (stereo not shown)    93
Cc1cccc(S(=O)(=O)c2ccc3c4c(oc3c2)CNCC4)n1    6.6
CC12CCNCC1Oc1ccc(S(=O)(=O)c3ccccc3F)cc12 (stereo not shown)    243

a = CC(C)N1CCC2c3ccc(S(=O)(=O)c4ccccc4)cc3OC2C1 (stereo not shown)
b = CC1(C)NCCc2c1oc1cc(S(=O)(=O)c3cccc(F)c3)ccc21
Lab note: check whether a or b has the lower measured Ki. Your answer should be the label of the entry you select.
b
